target or system: Rac GTPase-activating protein 1 (Homo sapiens)
Sequence (Q9H0H5 whole entry): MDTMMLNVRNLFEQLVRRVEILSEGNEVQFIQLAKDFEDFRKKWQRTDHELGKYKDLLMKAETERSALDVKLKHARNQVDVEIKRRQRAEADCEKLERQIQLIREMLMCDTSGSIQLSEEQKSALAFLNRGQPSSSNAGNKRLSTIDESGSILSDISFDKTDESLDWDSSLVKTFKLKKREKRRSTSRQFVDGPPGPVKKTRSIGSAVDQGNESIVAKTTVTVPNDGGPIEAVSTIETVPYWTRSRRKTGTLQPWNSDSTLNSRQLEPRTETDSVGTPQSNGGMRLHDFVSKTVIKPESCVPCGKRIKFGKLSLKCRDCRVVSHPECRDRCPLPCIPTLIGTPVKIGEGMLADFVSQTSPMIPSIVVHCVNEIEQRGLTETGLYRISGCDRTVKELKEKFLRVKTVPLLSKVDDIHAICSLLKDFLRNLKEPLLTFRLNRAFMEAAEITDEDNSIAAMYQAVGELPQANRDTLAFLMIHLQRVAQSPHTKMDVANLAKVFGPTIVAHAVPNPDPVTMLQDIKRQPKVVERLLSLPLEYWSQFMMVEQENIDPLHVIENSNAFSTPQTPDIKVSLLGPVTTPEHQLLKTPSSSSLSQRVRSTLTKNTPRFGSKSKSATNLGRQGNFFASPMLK
test details: MgcRacGAP GTPase-activating activity inhibitors, confirmation, biochemical, ADP Hunter fluorescence, primary and confirmatory (AID 624330)
Format: functional
Activity calls are given as the source filed them. No rule for the calls is given here.
measured attribute: IC50

| compound | data value |
| --- | --- |
| Cc1ccc(NC(=O)CN(C)C2CCCCC2)cc1Cl | 152 µM (active) |
| CC(=O)N1CCN(c2ccc(NCc3ccc(C(C)C)cc3)cc2)CC1 | 10.4 µM (active) |
| COc1ccc(NS(=O)(=O)c2cccc(C(=O)NN=Cc3ccc(O)c(OC)c3)c2)cc1 | 79.4 µM (active) |
| CCCOC(=O)c1ccc(O)c(OC)c1 | 127 µM (active) |
| O=c1cc(CN2CCOCC2)c2ccc(O)c(O)c2o1 | 82.7 µM (active) |
| Cc1cc(O)ccc1Nc1nc(-c2cccs2)cs1 | 46.5 µM (active) |
| CCOC(=O)C1CCCN(C2=NC(=O)/C(=C/c3ccc(O)c(OCC)c3)S2)C1 (configuration not stated) | 26.5 µM (active) |
| O=C(c1cccc(F)c1)N1CCN(C2CCCCC2)CC1 | 116 µM (active) |
| COc1ccc(NCCC(O)c2ccc(Cl)cc2)cc1 (configuration not stated) | 29.1 µM (active) |
| Cc1c(NC(=S)N/N=C/c2ccc(O)cc2)c(=O)n(-c2ccccc2)n1C | 55.6 µM (active) |
| CCCS(=O)(=O)N1CCN(C2CCC(C)CC2)CC1 (configuration not stated) | 232 µM (active) |
| COc1cc(/C=N/NC(=O)/C(=C/c2ccccc2)CCO)ccc1O | 35.7 µM (active) |
